System: ESS-1;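 also: growth inhibition of human ESS-1 cells, read out by a cell viability assay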
Assay: cells
Type: functional, cell-based, Homo sapiens
Settings: Homo sapiens, ESS-1
Description: SANGER: Inhibition of human ESS-1 cell growth in a cell viability assay.
pIC50: −log10 of the molar value.
ASSAY READOUT: pIC50

Before answering, review these 4 worked examples.
C=CCc1cccc(/C=N/NC(=O)CN2CCN(Cc3ccccc3)CC2)c1O    < 5.59
O=C1N=C(NCc2cccs2)S/C1=C\c1ccc2ncccc2c1    < 5.30
Nc1ccn([C@@H]2O[C@H](CO)[C@@H](O)[C@@H]2O)c(=O)n1    < 5.70
CN(Cc1cnc2nc(N)nc(N)c2n1)c1ccc(C(=O)N[C@@H](CCC(=O)O)C(=O)O)cc1 [METHOTREXATE]    < 6.70

From here, focus on the item given below.
Problem: Which measured pIC50 value corresponds to O=C(c1cc(Cc2n[nH]c(=O)c3ccccc23)ccc1F)N1CCN(C(=O)C2CC2)CC1 ?
Result: < 5.30

Just for reference, ChEMBL document CHEMBL1201861 is where these values come from.
